Molecular target: Bcl-2 protein (histag-Bcl-2, UniProtKB P10415) (Homo sapiens, UniProt P10415)
Construct: His tag
Sequence (P10415 whole entry): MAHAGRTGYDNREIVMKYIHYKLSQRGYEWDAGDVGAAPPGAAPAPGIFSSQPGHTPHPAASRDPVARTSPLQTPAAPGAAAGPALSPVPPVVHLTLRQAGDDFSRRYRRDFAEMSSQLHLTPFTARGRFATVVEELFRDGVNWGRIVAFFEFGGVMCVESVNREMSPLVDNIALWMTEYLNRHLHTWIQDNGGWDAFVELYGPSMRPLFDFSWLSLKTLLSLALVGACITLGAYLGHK
Assay: Inhibition of Bcl-2 by the fluorescence polarisation technique
Assay type: binding
Conditions: fluorescence polarisation, 2 hours incubation; read-out: IC50 (nM) Bcl-2 FP
Counter-ions that a name gives are not always drawn.
Measured quantity: IC50 (nM)

Previously resolved entries follow.
1. C[C@@H]1Cc2ccccc2CN1C(=O)c1cc2c(cc1-c1cc(C(=O)N(C)c3ccc(O)cc3)c3n1CCNC3)OCO2	90.2
2. C[C@@H]1Cc2ccccc2CN1C(=O)c1ccc(F)cc1-c1cc(C(=O)N(c2ccc(O)cc2)c2ccc(F)cc2)c2n1CCNC2 [Example 9, hydrochloride]	40.6

[P] CC[C@@H]1Cc2ccccc2CN1C(=O)c1ccc(Cl)cc1-c1cc(C(=O)N(c2ccc(O)cc2)c2cnc3c(ccn3C)c2)c2ccccn12
[Q] O=C(c1ccc(Cl)cc1-c1cc(C(=O)N(c2ccc(O)cc2)c2ccc3c(c2)CCN3CCN2CCOCC2)c2n1CCCC2)N1CCc2ccccc2C1
[R] CN(C(=O)c1cc(-c2cc3c(cc2C(=O)N2CCc4ccccc4C2)OCO3)n2c1CNCC2)c1ccc(O)cc1
Query: Sort the compounds on IC50; start with the lowest figure. Respond with an ordered listing of the labels, as requested.
Response: P, Q, R

[1] C[C@@H]1Cc2ccccc2CN1C(=O)c1cc2c(cc1-c1cc(C(=O)N(c3ccc(O)cc3)c3ccc(CN4CCCC(F)(F)C4)cc3)c3ccccn13)OCO2 [Example 30, hydrochloride]
[2] CN(C(=O)c1cc(-c2cc3c(cc2C(=O)N2CCc4ccccc4C2)OCO3)n2c1CCCC2)c1ccc(O)cc1
[3] C[C@@H]1Cc2ccccc2CN1C(=O)c1ccc(Cl)cc1-c1cc(C(=O)N(c2ccc(O)cc2)c2ccc3c(ccn3C)c2)c2n1CCNC2 [Example 3, hydrochloride]
[4] O=C(c1cc(-c2cc3c(cc2C(=O)N2Cc4ccccc4C[C@H]2CCNCC(F)F)OCO3)n2c1CCCC2)N(c1ccccc1)c1ccc(O)cc1
Query: Please rank these compounds by IC50 in descending order. Returns: the labels listed in the requested order.
Response: 2, 3, 1, 4
(2: 68.7 nM, 3: 33.6 nM, 1: 10.4 nM, 4: 4.8 nM)

* * *

System: RS4;11 leukaemia tumour line
Experiment: In vitro cytotoxicity (MTT) on RS4;11
Assay type: cell-based
Conditions: Homo sapiens; RS4;11 cells, 48 hours exposure
Structures can show the parent of a compound that is named as a salt.
Measured quantity: IC50 (nM)
Unit nM implied. Number only.

// worked examples, IC50 included
1) O=C(c1cc(-c2cc3c(cc2C(=O)N2Cc4ccccc4C[C@H]2CO)OCO3)n2c1CCCC2)N(c1ccccc1)c1ccc(O)cc1 [Example 16]	252
2) C[C@@H]1Cc2ccccc2CN1C(=O)c1ccc(F)cc1-c1cc(C(=O)N(c2ccc(O)cc2)c2cnn(C)c2)c2ccccn12 [Example 60]	60.3
3) CC[C@@H]1Cc2ccccc2CN1C(=O)c1ccc(Cl)cc1-c1cc(C(=O)N(c2ccc(O)cc2)c2cnc3c(ccn3C)c2)c2ccccn12 [Example 50]	28.2
4) C[C@@H]1Cc2ccccc2CN1C(=O)c1ccccc1-c1cc(C(=O)N(c2ccncc2)c2ccc(O)cc2)c2ccccn12 [Example 68, hydrochloride]	82.4
5) C[C@@H]1Cc2ccccc2CN1C(=O)c1ccc(F)cc1-c1cc(C(=O)N(c2ccc(O)cc2)c2ccc(F)cc2)c2n1CCNC2 [Example 9, hydrochloride]	780
6) O=C(c1cc(-c2cc3c(cc2C(=O)N2Cc4ccccc4C[C@H]2CCN2CCOCC2)OCO3)n2c1CCCC2)N(c1ccc(O)cc1)c1ccc(F)c(F)c1 [Example 25, hydrochloride]	30
7) Cn1ncc2cc(N(C(=O)c3cc(-c4cc5c(cc4C(=O)N4Cc6ccccc6C[C@H]4CCN4CCOCC4)OCO5)n4c3CCCC4)c3ccc(O)cc3)ccc21 [Example 14, hydrochloride]	7.6
8) C[C@@H]1Cc2ccccc2CN1C(=O)c1cc2c(cc1-c1cc(C(=O)N(c3ccc(O)cc3)c3cnc4ccnn4c3)c3ccccn13)OCO2 [Example 59]	21.2

The recorded IC50 for Cc1cc(N(C(=O)c2cc(-c3cc4c(cc3C(=O)N3Cc5ccccc5C[C@H]3C)OCO4)n3ccccc23)c2ccc(O)cc2)ccn1 [Example 32, hydrochloride] is 32.7

Please fill in: IC50 reported for CCN(C(=O)c1cc(-c2cc3c(cc2C(=O)N2Cc4ccccc4C[C@H]2C)OCO3)n2c1CNCC2)c1ccc(O)cc1 [Example 73] = 1320

Given item CC(C)c1cc(N(C(=O)c2cc(-c3cc4c(cc3C(=O)N3Cc5ccccc5C[C@H]3C)OCO4)n3ccccc23)c2ccc(O)cc2)ccn1 [Example 58, hydrochloride] , the value recorded as its IC50 is 68.5
